The values you see were collected from patent US11472803B2.

# Cooperativity (alpha factor) per entry
Molecular target: human M2 receptor (Homo sapiens, UniProt P08172)
Construct: expressed in transfected cells; host or cells: CHO-DUKX (CHO-DUKX-M2-GIRK)
Sequence (P08172 whole entry): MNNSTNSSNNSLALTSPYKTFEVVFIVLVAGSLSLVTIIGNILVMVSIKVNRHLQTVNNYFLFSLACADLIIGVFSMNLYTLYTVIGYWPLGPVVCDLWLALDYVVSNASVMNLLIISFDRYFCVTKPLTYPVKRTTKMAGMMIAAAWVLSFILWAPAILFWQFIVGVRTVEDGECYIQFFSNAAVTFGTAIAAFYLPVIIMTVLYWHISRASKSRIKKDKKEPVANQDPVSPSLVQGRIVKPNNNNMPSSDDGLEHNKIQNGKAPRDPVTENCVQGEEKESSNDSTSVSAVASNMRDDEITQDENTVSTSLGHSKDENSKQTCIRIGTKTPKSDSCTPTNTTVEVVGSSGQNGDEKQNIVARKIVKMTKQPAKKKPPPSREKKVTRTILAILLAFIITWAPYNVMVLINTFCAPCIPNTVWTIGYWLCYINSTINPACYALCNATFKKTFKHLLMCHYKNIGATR
Test: Functional M2-GIRK1/4 activation test: positive cooperativity (α factor), shift of acetylcholine dose-response curve
Assay type: cell-based
Conditions: Allosteric EC50 shift of acetylcholine 8-point dose-response curve; CHO-DUKX-M2-GIRK cells; α>1 = positive cooperativity
Procedure: The binding of orthosteric agonists (endogenous ligand: acetylcholine) to the M2 receptor leads to receptor activation or a change in conformation of the receptor in the manner of a shift in equilibrium in favour of the active receptor conformation. […] Finally, the cells are admixed with 10 μl of agonist solution (acetylcholine dissolved in loading buffer). […] The M2-mediated GIRK1/4 activation or hyperpolarization is then monitored in a third measurement over a period of 60 sec in 1 sec increments. […]
// return just the number, without any unit appended

Consider the following illustrative entries.
compound | measured metric | observed measurement
CC(C)(NC(=O)c1cn(-c2c(F)cc(F)cc2F)c2nc(N3C[C@@H](O)[C@H](O)C3)c(F)cc2c1=O)C1CC1 [Example 25] | Cooperativity (alpha factor) | 45
CC(C)(CC(F)(F)F)NC(=O)c1cn(-c2c(F)cccc2F)c2nc(N3C[C@@H](O)[C@H](O)C3)c(F)cc2c1=O [Example 1] | Cooperativity (alpha factor) | 35
O=C(N[C@@H](C1CC1)C(F)(F)F)c1cn(-c2c(F)cc(F)cc2F)c2nc(N3CC[C@H](O)C3)c(F)cc2c1=O [Example 108] | Cooperativity (alpha factor) | 47
CC(C)(NC(=O)c1cn(-c2c(F)cc(F)cc2F)c2nc(N3CC(CO)(CO)C3)c(F)cc2c1=O)C(F)(F)C(F)(F)F [Example 166] | Cooperativity (alpha factor) | 31
C[C@H](NC(=O)c1cn(-c2c(F)cc(F)cc2F)c2nc(N3C[C@@H](O)[C@H](O)C3)c(F)cc2c1=O)C(F)(F)F [Example 18] | Cooperativity (alpha factor) | 43

## Task Would you kindly share the measured Cooperativity (alpha factor) for O=C(N[C@@H](C1CC1)C(F)(F)F)c1cn(-c2c(F)cc(F)cc2F)c2nc(N3C[C@@H](O)[C@H](O)C3)c(Cl)cc2c1=O [Example 37] ?
## Result 38

## Task Given the entry CC(C)(NC(=O)c1cn(-c2c(F)cc(F)cc2Cl)c2nc(N3C[C@@H](O)[C@H](O)C3)c(F)cc2c1=O)C(F)F (single isomer, unassigned) [Example 143] , report its measured Cooperativity (alpha factor).
## Result 40

## Task May I ask what Cooperativity (alpha factor) has been recorded for CC[C@@H](NC(=O)c1cn(-c2c(F)cc(F)cc2F)c2nc(N3C[C@@H](O)[C@H](O)C3)c(F)cc2c1=O)C(F)(F)F [Example 36] ?
## Result 51

## Task Which measured Cooperativity (alpha factor) value corresponds to O=C(N[C@@H](C1CC1)C(F)(F)F)c1cn(-c2c(F)cc(F)cc2F)c2nc(N3CC(O)C3)c(F)cc2c1=O [Example 54] ?
## Result 30

## Task Report Cooperativity (alpha factor) for CC(C)(C)C(C)(C)NC(=O)c1cn(-c2c(F)cc(F)cc2F)c2nc(N3C[C@@H](O)[C@H](O)C3)c(F)cc2c1=O [Example 165] please.
## Result 48
